# reported pIC50; entries follow
# subjectOfTest: Endothelial lipase (EL) (Homo sapiens (Human), UniProt Q9Y5X9)
# Sequence (Q9Y5X9 21-500): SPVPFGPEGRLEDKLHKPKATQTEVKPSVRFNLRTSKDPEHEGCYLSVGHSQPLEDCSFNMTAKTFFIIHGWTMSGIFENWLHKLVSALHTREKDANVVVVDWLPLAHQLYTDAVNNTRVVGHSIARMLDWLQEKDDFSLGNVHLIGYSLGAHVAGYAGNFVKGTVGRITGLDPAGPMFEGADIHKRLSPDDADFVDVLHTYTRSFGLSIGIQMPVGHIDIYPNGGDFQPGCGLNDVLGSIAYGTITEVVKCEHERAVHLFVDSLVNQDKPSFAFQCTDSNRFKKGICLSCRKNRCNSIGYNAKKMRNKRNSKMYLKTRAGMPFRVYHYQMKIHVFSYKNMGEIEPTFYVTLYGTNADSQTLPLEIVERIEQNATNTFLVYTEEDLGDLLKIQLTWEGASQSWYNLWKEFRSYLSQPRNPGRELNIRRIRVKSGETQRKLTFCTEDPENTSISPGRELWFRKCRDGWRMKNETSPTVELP
# procedureSummary: EL assay: endothelial lipase activity with fluorescent substrate A10070 in DMPG vesicles
# Format: biochemical
Convention used: pIC50 is expressed as -log10 of the molar concentration.

Ask | I'd like to know its pIC50. The compound in question is NS(=O)(=O)CCNC(=O)C(c1nc2ccc(-c3cccc(C(=O)N4CC(F)C4)c3)cc2s1)S(=O)(=O)CCC(F)(F)F (stereo not shown)
Reply | 8.09

Ask | Bench note: what pIC50 did NS(=O)(=O)CCNC(=O)C(c1nc2ccc(-c3ccc(CO)cc3)cc2s1)S(=O)(=O)CCN1CCOCC1 (stereo not shown) show?
Reply | 7.79

Ask | Quick one: pIC50 for Cc1cc2nc(C(C(=O)NCCS(N)(=O)=O)S(C)(=O)=O)sc2cc1-c1ccc(C(=O)OC(C)(C)C)cc1 (stereo not shown) ?
Reply | 8.77

Ask | pIC50 for CS(=O)(=O)C(C(=O)NCCS(N)(=O)=O)c1nc2cc(-c3ccncc3F)ccc2s1 (stereo not shown) ?
Reply | 8.96

Ask | Consider the compound shown here: Cc1nnc(CNC(=O)C(c2nc3cc(C)c(-c4ccc(N5CCNCC5)cc4)cc3s2)S(C)(=O)=O)o1 (stereo not shown) What is its recorded pIC50?
Reply | 7.47

###

Measured IC50, listed per entry.
# subjectOfTest: hepatic lipase (HL) (Homo sapiens (Human))
# Sequence (P11150 23-499, species assumed): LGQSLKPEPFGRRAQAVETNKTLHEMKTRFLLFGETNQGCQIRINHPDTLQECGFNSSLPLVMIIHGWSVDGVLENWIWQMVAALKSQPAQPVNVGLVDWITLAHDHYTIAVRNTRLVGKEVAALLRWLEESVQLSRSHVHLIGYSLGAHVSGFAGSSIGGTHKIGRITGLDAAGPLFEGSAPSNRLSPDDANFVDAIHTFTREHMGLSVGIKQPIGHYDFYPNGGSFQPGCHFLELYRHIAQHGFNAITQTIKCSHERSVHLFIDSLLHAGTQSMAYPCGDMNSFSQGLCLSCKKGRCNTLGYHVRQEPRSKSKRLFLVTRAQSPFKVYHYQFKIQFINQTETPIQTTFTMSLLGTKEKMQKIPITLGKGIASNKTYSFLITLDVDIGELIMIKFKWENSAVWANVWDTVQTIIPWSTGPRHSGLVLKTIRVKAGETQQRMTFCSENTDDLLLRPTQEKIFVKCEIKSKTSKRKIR
# procedureSummary: HL assay: hepatic lipase activity with fluorescent substrate A10070 in DMPG vesicles
# Format: biochemical
Your answer should be a plain number; it is taken to be in nM.

Some entries whose results are on file:
# compound, subjectOfTest, IC50 / nM
data = [
    ("CC(=O)Nc1ccc(-c2ccc3nc(C(C(=O)NCCS(N)(=O)=O)S(=O)(=O)CCC(F)(F)F)sc3c2)cc1 (stereo not shown) [Example B55]", "hepatic lipase (HL) (Homo sapiens (Human))", 55),
    ("NS(=O)(=O)CCNC(=O)C(c1nc2ccc(-c3ccc(C(=O)N4CCOCC4)cc3)cc2s1)S(=O)(=O)CCC(F)(F)F (stereo not shown)", "hepatic lipase (HL) (Homo sapiens (Human))", 23),
    ("COC1CN(C(=O)c2ccc(-c3ccc4nc(C(C(=O)NCCS(N)(=O)=O)S(C)(=O)=O)sc4c3)cc2)C1 (stereo not shown)", "hepatic lipase (HL) (Homo sapiens (Human))", 118),
]

Then there is this compound:
Ask | Value lookup for IC50; key = NS(=O)(=O)CCNC(=O)C(c1nc2ccc(-c3ccc(S(=O)(=O)NCCO)cc3)cc2s1)S(=O)(=O)Cc1ccc(F)cc1 (stereo not shown)
Reply | 234

###

# subjectOfTest: hepatic lipase (HL) (Homo sapiens (Human))
# procedureSummary: HL assay: hepatic lipase activity with fluorescent substrate A10070 in DMPG vesicles
# Format: biochemical
// values below are reported IC50
State just the number; it will be interpreted in nM.

Completed entries (count: 2):
# compound, recordedNumber
measured = [
    ("CS(=O)(=O)C(C(=O)NCCS(N)(=O)=O)c1nc2cc(-c3cnoc3)ccc2s1 (centres unmarked) [Example B373]", 45.7),
    ("Cn1cc(-c2cc3sc(C(C(=O)NCCS(N)(=O)=O)S(=O)(=O)Cc4ccccc4)nc3cc2F)cn1 (centres unmarked) [Example B138]", 142),
]

Ask | Any idea what IC50 was measured for NS(=O)(=O)CCNC(=O)C(c1nc2ccc(-c3cnn(CCN4CCOCC4)c3)cc2s1)S(=O)(=O)CCCC(F)(F)F (centres unmarked) [Example B127] ?
Reply | 933

Ask | What value of IC50 has been reported for the following compound? CC(C)c1cc(CNC(=O)c2ccc3nc(C(C(=O)NCCS(N)(=O)=O)S(=O)(=O)CCC(F)(F)F)sc3c2)on1 (centres unmarked) [Example B199]
Reply | 3670

Ask | Please report the recorded IC50 for NS(=O)(=O)CCNC(=O)C(c1nc2ccc(-c3ccc(CCO)cc3)cc2s1)S(=O)(=O)CC1CC1 (centres unmarked) [Example B60] .
Reply | 61

Ask | Query: IC50; subject: CC(C)(O)Cn1cc(-c2ccc3sc(C(C(=O)NCCS(N)(=O)=O)S(C)(=O)=O)nc3c2)ccc1=O (centres unmarked) [Example B390]
Reply | 10000

Ask | # IC50 lookup, item NS(=O)(=O)CCNC(=O)C(c1nc2ccc(-c3ccc(C(=O)N4CC(F)C4)cc3)cc2s1)S(=O)(=O)Cc1ccc(OC(F)(F)F)cc1 (centres unmarked) [Example B355]
Reply | 235
